These measurements were taken from patent US20250171426A1.

Target: AXL (Homo sapiens, UniProt P30530)
Assay: Enzymatic assay (ADP-Glo kinase reaction), AXL
Assay type: biochemical
Conditions: 10 μM ATP, 60 min, ADP-GLO luminescence
Each record here notes measured IC50.

Field: example entries. Status: answers known.
INSERT INTO measurements (line_notation, measured_parameter, endpoint_value) VALUES
  ('COCCN1CCN(C(=O)C#Cc2c(Oc3ccc(NC(=O)c4cn(C(C)C)c(=O)n(-c5ccc(F)cc5)c4=O)cc3F)ccnc2N)CC1', 'IC50', '< 10 nM'),
  ('Nc1nccc(Oc2ccc(NC(=O)c3cn(C4CCOCC4)c(=O)n(-c4ccc(F)cc4)c3=O)cc2F)c1C#CCN1CCOCC1', 'IC50', '< 100 nM');

Below: the item to evaluate.
Challenge: Using the record for `Nc1nccc(Oc2ccc(NC(=O)c3c[nH]c(=O)n(-c4ccc(F)cc4)c3=O)cc2F)c1C#CCC1CCNCC1` , report its IC50.
Response given: < 10 nM

* * *

Target: MER (Homo sapiens, UniProt Q12866)
Sequence (Q12866 21-999): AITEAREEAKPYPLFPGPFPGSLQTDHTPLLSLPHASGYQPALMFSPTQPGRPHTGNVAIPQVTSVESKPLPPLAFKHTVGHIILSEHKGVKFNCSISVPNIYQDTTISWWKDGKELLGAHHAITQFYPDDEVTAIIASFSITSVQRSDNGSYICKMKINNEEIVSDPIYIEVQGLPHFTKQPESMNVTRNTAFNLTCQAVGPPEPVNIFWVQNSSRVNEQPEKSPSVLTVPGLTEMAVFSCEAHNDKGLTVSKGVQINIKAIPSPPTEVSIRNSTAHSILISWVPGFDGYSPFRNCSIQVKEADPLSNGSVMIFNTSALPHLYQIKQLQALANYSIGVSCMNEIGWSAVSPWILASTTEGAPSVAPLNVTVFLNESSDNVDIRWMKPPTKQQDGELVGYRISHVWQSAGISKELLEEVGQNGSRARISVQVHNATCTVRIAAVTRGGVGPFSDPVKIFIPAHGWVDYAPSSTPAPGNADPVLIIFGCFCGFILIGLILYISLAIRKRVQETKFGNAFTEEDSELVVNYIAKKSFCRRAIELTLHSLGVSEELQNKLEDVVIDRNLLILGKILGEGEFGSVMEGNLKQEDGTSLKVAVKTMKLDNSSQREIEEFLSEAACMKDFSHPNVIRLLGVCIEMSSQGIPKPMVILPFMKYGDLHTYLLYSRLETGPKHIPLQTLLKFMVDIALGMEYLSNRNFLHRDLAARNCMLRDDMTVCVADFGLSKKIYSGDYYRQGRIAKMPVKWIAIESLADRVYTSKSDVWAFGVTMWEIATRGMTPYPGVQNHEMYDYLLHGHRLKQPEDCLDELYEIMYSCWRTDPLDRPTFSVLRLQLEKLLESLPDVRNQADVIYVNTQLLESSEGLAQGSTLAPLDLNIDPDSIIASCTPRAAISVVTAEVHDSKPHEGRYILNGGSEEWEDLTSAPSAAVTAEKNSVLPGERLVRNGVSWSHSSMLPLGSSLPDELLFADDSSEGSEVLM
Test: Enzymatic assay (ADP-Glo kinase reaction), MER
Format: biochemical
Settings: 10 μM ATP, 60 min, ADP-GLO luminescence
measured_parameter: IC50

INSERT INTO measurements (line_notation, endpoint_value) VALUES
  ('CC(C)n1cc(C(=O)Nc2ccc(Oc3ccnc(N)c3-c3ccccc3)c(F)c2)c(=O)n(-c2ccc(F)cc2)c1=O', '< 100 nM'),
  ('C=CCn1cc(C(=O)Nc2ccc(Oc3ccnc(N)c3C#CCC3CCNCC3)c(F)c2)c(=O)n(CC=C)c1=O', '< 10 nM'),
  ('CC(C)n1cc(C(=O)Nc2ccc(Oc3ccnc(N)c3Cl)c(F)c2)c(=O)n(-c2ccc(F)cc2)c1=O', '< 100 nM'),
  ('CN(C)C(=O)Cn1cc(C(=O)Nc2ccc(Oc3ccnc(N)c3C#CCC3CCNCC3)c(F)c2)c(=O)n(-c2ccc(F)cc2)c1=O', '< 10 nM'),
  ('Cc1nc(Cn2cc(C(=O)Nc3ccc(Oc4ccnc(N)c4C#CCN4CCOCC4)c(F)c3)c(=O)n(-c3ccc(F)cc3)c2=O)cs1', '< 100 nM'),
  ('C=CCn1cc(C(=O)Nc2ccc(Oc3ccnc(N)c3C#CC(C)(C)N3CCN(C)CC3)c(F)c2)c(=O)n(CC=C)c1=O', '< 100 nM');

For the next question, use this compound.
Challenge: Using the record for `CCCn1cc(-c2c(Oc3ccc(NC(=O)c4cn(C(C)C)c(=O)n(-c5ccc(F)cc5)c4=O)cc3F)ccnc2N)cn1` , report its IC50.
Response given: < 1000 nM

* * *

Target: UniProtKB P30530
Sequence (P30530 26-894): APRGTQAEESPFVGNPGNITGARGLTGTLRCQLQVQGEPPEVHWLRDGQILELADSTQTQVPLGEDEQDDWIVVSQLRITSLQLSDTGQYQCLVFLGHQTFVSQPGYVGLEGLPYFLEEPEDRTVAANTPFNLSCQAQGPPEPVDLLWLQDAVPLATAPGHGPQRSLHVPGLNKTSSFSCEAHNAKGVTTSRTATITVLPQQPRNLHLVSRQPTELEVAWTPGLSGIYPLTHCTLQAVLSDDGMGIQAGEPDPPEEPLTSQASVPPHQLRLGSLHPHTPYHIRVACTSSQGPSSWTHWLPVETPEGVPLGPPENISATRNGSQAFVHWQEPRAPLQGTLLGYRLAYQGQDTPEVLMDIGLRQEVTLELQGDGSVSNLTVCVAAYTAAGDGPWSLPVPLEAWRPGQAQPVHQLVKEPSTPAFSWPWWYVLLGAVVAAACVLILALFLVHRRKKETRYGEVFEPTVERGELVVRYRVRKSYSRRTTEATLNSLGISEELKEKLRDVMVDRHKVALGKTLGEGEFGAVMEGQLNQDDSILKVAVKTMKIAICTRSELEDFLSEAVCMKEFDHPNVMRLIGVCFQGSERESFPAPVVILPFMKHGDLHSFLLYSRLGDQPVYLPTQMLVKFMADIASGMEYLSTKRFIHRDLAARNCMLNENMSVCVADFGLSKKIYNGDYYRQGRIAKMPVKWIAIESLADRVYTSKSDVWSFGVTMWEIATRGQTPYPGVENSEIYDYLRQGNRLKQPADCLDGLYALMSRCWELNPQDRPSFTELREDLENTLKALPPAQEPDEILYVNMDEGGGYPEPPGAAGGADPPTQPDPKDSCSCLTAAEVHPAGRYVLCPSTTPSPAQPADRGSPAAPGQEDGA
Assay: Enzymatic assay (ADP-Glo kinase reaction), AXL
Assay type: biochemical
Details: 10 μM ATP, 60 min, ADP-GLO luminescence
measured_parameter: IC50

INSERT INTO assay_data (line_notation, measured_parameter, endpoint_value) VALUES
  ('CC(C)(C#Cc1c(Oc2ccc(NC(=O)c3c[nH]c(=O)n(-c4ccc(F)cc4)c3=O)cc2F)ccnc1N)N1CCNCC1', 'IC50', '< 100 nM'),
  ('Cc1nc(Cn2cc(C(=O)Nc3ccc(Oc4ccnc(N)c4C#CCC4CCN(C)CC4)c(F)c3)c(=O)n(-c3ccc(F)cc3)c2=O)cs1', 'IC50', '< 10 nM'),
  ('CN1CCC(CC#Cc2c(Oc3ccc(NC(=O)c4nn(C)c(=O)n(-c5ccc(F)cc5)c4=O)cc3F)ccnc2N)CC1', 'IC50', '< 100 nM'),
  ('CN1CCN(C(C)(C)C#Cc2c(Oc3ccc(NC(=O)c4cn(C5CCOCC5)c(=O)n(-c5ccc(F)cc5)c4=O)cc3F)ccnc2N)CC1', 'IC50', '< 100 nM');

Challenge: Returns the measured IC50 for the input compound. Input: `COCCN1CCC(CC#Cc2c(Oc3ccc(NC(=O)c4cn(C(C)C)c(=O)n(-c5ccc(F)cc5)c4=O)cc3F)ccnc2N)CC1`
Response given: < 10 nM

Challenge: Entry under review: `CC(C)(C#Cc1c(Oc2ccc(NC(=O)c3cn(C4CCOCC4)c(=O)n(-c4ccc(F)cc4)c3=O)cc2F)ccnc1N)N1CCOCC1` . Reported IC50?
Response given: < 100 nM
